# METHOD: OD615 S. cerevisiae growth inhibition, permissive medium, pilot counter-assay, permissive growth control for S. cerevisiae lifespan shortening project (AID 705)
# RUN_CONDITIONS: OD615, 24 h, at 10 µM, stronger effect = higher value
# binarize growth inhibition: threshold -10% inclusive, high side t, low side f

COMPOUND | LABEL_VALUE
COc1ccc(C2C(C(=O)N3CCN(c4ccccc4F)CC3)c3ccccc3C(=O)N2C)cc1 (stereo not drawn) | f
C=CCn1c(O)c(C2=c3ccccc3=NC2=O)s/c1=N/c1nccs1 | t
CC1(C)CC(=O)C2=C(C1)N(c1ccc(F)cc1)C(=O)CC2c1cccnc1 (stereo not drawn) | t
O=C(Cn1nnc(-c2ccccc2NC(=O)c2ccccc2F)n1)NCc1ccco1 | t
CCc1ccc(C2CC(c3ccc(F)cc3)Nc3nc(N)nn32)cc1 (stereo not drawn) | t

Problem: hey, is growth inhibition for this one >= -10%? CCOC(=O)N1CCN(C(=O)CS(=O)(=O)c2cn(Cc3ccccc3C)c3ccccc23)CC1
Result: t

Problem: Continue with O=C(NCc1cccs1)C1CCCN(S(=O)(=O)c2ccc3c(c2)OCO3)C1 (stereo not drawn)
Result: f

Problem: Next compound up: CC(NS(C)(=O)=O)C(c1cccs1)N1CCN(Cc2ccccc2)CC1 (stereo not drawn)
Result: t

Problem: Another compound: CCC(=O)Nc1c2c(nn1-c1cccc(Cl)c1)CSC2
Result: t

Problem: Subsequent entry: CC(=O)N1CCC(Nc2ccc(C)cc2)CC1
Result: f

Problem: Then this compound: CCCOC(=O)CSC1=C(C#N)C(c2ccccc2Cl)CC(=O)N1 (stereo not drawn)
Result: t

Problem: Query COc1ccc(C2C(C(=O)NCC3CCCO3)c3cc(OC)c(OC)cc3C(=O)N2C)cc1OC (stereo not drawn) next
Result: f

Problem: // query: CCOC(=O)CN1CC23C=CC(O2)C(C(=O)NCc2ccc(C)cc2)C3C1=O (stereo not drawn)
Result: t

====

Listed next: entries and their corresponding RAM network inhibition.
# METHOD: RAM signaling pathway blockade in yeast – S. cerevisiae, Pdr1DBD-CYC8 efflux-inhibited sensitized strain, primary screen (AID 1298);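 also: 0% = DMSO untreated cells without growth and 100% = 10 µM 1-NA-PP1 full growth; higher means more yeast growth rescued from 5-FOA killing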
# RUN_CONDITIONS: S. cerevisiae cbk1-as DSE1-URA3 strain, 5-FOA growth OD615, 2 d; at 50 µM; stronger effect = higher value
Give the quantity in %, number only.

Previously resolved entries follow.
COMPOUND | RESULT_NUMBER
O=C(Oc1c(Cl)cc(Cl)c2cccnc12)N1CCCCC1 | -1.03
CC(=O)c1ccc(OCC(O)CN2CCC(C)CC2)cc1 (stereo unspecified) | -2.94
Cc1cc(C(C)(C)C)oc1C(=O)Nc1ccc(CC(=O)O)cc1 | 3.99
COC(=O)c1c(C)oc2cc(Br)c(OCC(=O)C(C)(C)C)cc12 | 3.84
CCN(CC)CCN1C(=O)C(=O)/C(=C(/O)c2ccc(C)cc2)C1c1ccncc1 (stereo unspecified) | 5.38

Let's switch to this compound now.
Problem: Look up RAM network inhibition for this compound: Cc1ccc(S(=O)(=O)/N=C(\CN2CCCCC2)N2CCOCC2)cc1
Result: 4.62

====

# METHOD: RAM signaling pathway blockade in yeast – S. cerevisiae, Pdr1DBD-CYC8 efflux-inhibited sensitized strain, primary screen (AID 1298);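 also: 0% = DMSO untreated cells without growth and 100% = 10 µM 1-NA-PP1 full growth; higher means more yeast growth rescued from 5-FOA killing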
# RUN_CONDITIONS: S. cerevisiae cbk1-as DSE1-URA3 strain, 5-FOA growth OD615, 2 d; at 50 µM; stronger effect = higher value
READOUT_LABEL: RAM network inhibition (%)
Enter your answer as a number in %; do not include the unit.

COMPOUND | UOM | RAM network inhibition
COCCNC(=O)CS(=O)Cc1nc(-c2ccc(OC)cc2)oc1C (stereo not given) | % | 0.85
COC(=O)c1cc(OC)c(OC)cc1N=CC1=C(O)CC(C)(C)CC1=O | % | 3.12
O=C(NC1CCCCCC1)C1C2C=CC3(CN(Cc4cccnc4)C(=O)C13)O2 (stereo not given) | % | 1.44
CCOC(=O)Nc1cc(C)c(Cl)cc1OC | % | 5.3
NC(=O)CSc1nnc(Cn2c(=O)sc3ccccc32)n1-c1ccccc1 | % | 2.47

Now look at this entry.
Problem: Data request, read-out RAM network inhibition, for CCOc1ccc(Cn2nnc(C(=O)NCc3ccccc3)c2N)cc1
Result: 3.74
